Listed here: items and their measured koff.
Biological target: T1, recombinant purified human IL-12 p70 (human, UniProt P29459 23-219)
T1 construct: Disulfide-linked heterodimer of p35 and p40; also called hIL-12; Hu IL-12
T1 sequence 1: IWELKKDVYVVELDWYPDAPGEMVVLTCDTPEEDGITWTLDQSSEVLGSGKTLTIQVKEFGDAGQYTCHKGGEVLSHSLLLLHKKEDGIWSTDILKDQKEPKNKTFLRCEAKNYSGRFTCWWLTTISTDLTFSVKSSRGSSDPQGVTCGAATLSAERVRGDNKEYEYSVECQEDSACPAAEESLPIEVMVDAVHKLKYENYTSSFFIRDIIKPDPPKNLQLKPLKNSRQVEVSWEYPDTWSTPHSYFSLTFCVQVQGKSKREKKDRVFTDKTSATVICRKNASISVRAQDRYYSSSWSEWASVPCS
T1 sequence 2: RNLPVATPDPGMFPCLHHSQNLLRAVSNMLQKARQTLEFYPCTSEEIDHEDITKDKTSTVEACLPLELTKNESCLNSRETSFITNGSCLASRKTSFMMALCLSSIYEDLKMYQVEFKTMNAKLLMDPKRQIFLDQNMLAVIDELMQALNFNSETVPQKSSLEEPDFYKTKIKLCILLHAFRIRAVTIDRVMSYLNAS
Test: SPR (Biacore) according to Example 1.1.B
Field format: number, assumed s⁻¹, no unit text.

Take a look at these entries with their results.
additional humanized anti-IL-12 antibody 8E1.4 (antibody, IgG1, V domains shown, IgG1/kappa) VH: EVQLVESGGGLVQPGGSLRLSCAASGFTFSDYGMVWVRQAPGKGLEWVASISSGSSNIYYADTVKGRFTISRDNAKNTLYLQMNSLRAEDTAVYYCARNPYWGQGTLVTVSS VL: DIQMTQSPSSLSASVGDRVTITCKASQNVGTNVAWYQQKPGKAPKGLIYSASHRYSGVPSRFSGSGSGTDFTLTISSLQPEDFATYYCQQYNSYPLTFGGGTKVEIKR ... 0.001
additional humanized anti-IL-12 antibody 1A6.10 (antibody, human IgG1, V domains shown, Only variable domains tied to it) VH: EVTLRESGPGLVKPTQTLTLTCTLYGFSLSTSGMGVSWIRQPPGKGLEWLAHIWWDGDNYYNPSLKSQLTISKDTSKNQVVLKLTSVDPVDTATYYCARRTRVNYAMDYWGQGTLVTVSS VL: DIQMTQSPSSLSASVGDRVTITCKASQSVSNDVAWYQQKPGKAPKLLIYYASNRYTGVPDRFSGSGYGTDFTFTISSLQPEDIATYYCQQDYNSPWTFGGGTKVEIKR ... 7.6e-06
additional humanized anti-IL-12 antibody 1A6.12 (antibody, human IgG1, V domains shown, Only variable domains tied to it) VH: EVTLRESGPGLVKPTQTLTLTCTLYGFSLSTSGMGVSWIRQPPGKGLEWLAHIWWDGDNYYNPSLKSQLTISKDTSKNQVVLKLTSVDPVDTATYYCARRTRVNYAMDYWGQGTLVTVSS VL: DIQMTQSPSSLSASVGDRVTITCKASQSVSNDVAWFQQKPGKAPKLLIYYASNRYTGVPDRFSGSGYGTDFTFTISSLQPEDIATYYCQQDYNSPWTFGGGTKVEIKR ... 0.0003
additional humanized anti-IL-12 antibody 8E1.6 (antibody, V domains shown, IgG1/kappa, expressed in 293T/17 cells from pVg1.D.Tt (D356E L358M, L234A L235A) and pVk) VH: EVQLVESGGGLVQPGGSLRLSCAASGFTFSDYGMVWVRQAPGKGLEWVASISSGSSNIYYADTVKGRFTISRDDAKNTLYLQMNSLRAEDTAVYYCARNPYWGQGTLVTVSS VL: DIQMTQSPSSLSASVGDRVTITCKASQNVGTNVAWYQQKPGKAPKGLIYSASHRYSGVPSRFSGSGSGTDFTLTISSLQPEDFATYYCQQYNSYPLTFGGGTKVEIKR ... 8e-05

Turning to the following binder.
Query block: Look up koff for this binder: additional humanized anti-IL-12 antibody 8E1.5 (antibody, IgG1, V domains shown, IgG1/kappa) VH: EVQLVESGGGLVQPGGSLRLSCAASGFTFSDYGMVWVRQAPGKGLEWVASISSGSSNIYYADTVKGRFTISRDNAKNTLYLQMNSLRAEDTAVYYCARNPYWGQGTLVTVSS VL: DIQMTQSPSSLSASVGDRVTITCKASQNVGTNVAWYQQKPGKAPKGLIYSASHRYSGVPDRFSGSGSGTDFTLTISSLQPEDFATYYCQQYNSYPLTFGGGTKVEIKR
Result block: 0.00124
